- Assayed target: UniProtKB P08912
- Sequence (P08912 whole entry): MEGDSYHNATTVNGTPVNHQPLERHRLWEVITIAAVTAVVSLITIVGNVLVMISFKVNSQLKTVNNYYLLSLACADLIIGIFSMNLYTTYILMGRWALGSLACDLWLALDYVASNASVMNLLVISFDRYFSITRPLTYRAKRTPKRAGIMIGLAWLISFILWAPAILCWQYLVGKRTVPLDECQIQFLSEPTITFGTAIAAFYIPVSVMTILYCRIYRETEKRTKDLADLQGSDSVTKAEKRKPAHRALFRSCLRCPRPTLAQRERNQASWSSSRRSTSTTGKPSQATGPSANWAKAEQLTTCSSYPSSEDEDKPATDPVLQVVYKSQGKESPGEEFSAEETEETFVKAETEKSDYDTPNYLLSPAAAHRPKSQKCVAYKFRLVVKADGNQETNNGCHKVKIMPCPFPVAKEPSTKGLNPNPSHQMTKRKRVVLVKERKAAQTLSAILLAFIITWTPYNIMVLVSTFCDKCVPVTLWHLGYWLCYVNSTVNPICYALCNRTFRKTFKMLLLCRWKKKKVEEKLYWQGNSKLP
- Assay remarks: Binding affinity at the NMS liganded human muscarinic acetylcholine receptor M5 was estimated as log affinity (log1/M)
Experimental readout: Affinity
One number for each entry.

These solved cases illustrate the format of a correct answer.
compound="COc1cc2c(cc1OC)[C@@]13CC[N+]4([O-])CC5=CCO[C@H]6CC(=O)N2[C@H]1[C@H]6[C@H]5C[C@@H]34 (stereo partly specified)" assayed_target="UniProtKB P08912" experimental_readout=Affinity reported_result=2.7
compound="COc1cc2c(cc1OC)[C@@]13CC[N+]4(CCl)CC5=CCO[C@H]6CC(=O)N2[C@H]1[C@H]6[C@H]5C[C@@H]34 (stereo partly specified)" assayed_target="UniProtKB P08912" experimental_readout=Affinity reported_result=3.3
compound="COc1cc2c(cc1OC)[C@@]13CC[N+]4(N)CC5=CCO[C@H]6CC(=O)N2[C@H]1[C@H]6[C@H]5C[C@@H]34 (stereo partly specified)" assayed_target="UniProtKB P08912" experimental_readout=Affinity reported_result=3.3
compound="COc1cc2c(cc1OC)[C@@]13CC[N+]4(Cc5ccccc5)CC5=CCO[C@H]6CC(=O)N2[C@H]1[C@H]6[C@H]5C[C@@H]34 (stereo partly specified)" assayed_target="UniProtKB P08912" experimental_readout=Affinity reported_result=3.7
compound=COc1cc2c(cc1OC)[C@@]13CCN4CC5=CCO[C@H]6CC(=O)N2[C@H]1[C@H]6[C@H]5C[C@H]43 assayed_target="UniProtKB P08912" experimental_readout=Affinity reported_result=3.3

Kindly consider the entry below.
*Q* Dear colleague, I am looking for the recorded Affinity of the following compound: COc1cc2c(cc1OC)[C@@]13CC[N+]4(C)CC5=CCO[C@H]6CC(=O)N2[C@H]1[C@H]6[C@H]5C[C@@H]34 (stereo partly specified)
*A* 2.9
